Recorded intrinsic clearance, human liver microsomes, one value per entry.
Kindly provide the numeric value in mL/min/kg only, without the unit symbol.

[[record]]
compound = "CCCCc1c(C)[nH]c2nc(N(Cc3cccs3)C(C)=O)nn2c1=O"
value_observed = 13.7

[[record]]
compound = "Cc1ccc(NC(=O)CN(C)C2CCCCC2)cc1S(=O)(=O)N(C)C"
value_observed = 432

[[record]]
compound = "O=C(C1CCCN(C(=O)N2CCCC2)C1)N1CCc2ccccc2C1 (stereo unspecified)"
value_observed = 87.1

[[record]]
compound = "Cc1nc(N2CCc3c(ncn3C)C2)c2c(C)c(C)sc2n1"
value_observed = 94.2

[[record]]
compound = "O=C(Nc1nccs1)[C@@H]1C[C@@H]2CCCC[C@@H]2N1C(=O)c1ccccc1"
value_observed = 36.7

[[record]]
compound = "O=C(NCCc1ccc(F)cc1)n1ccnc1"
value_observed = 39.7

[[record]]
compound = "Cc1ccccc1OC1CCN(C(=O)Nc2ccc3c(c2)ncn3C)CC1"
value_observed = 11.4

[[record]]
compound = "CCCCNc1nc2c(cc1C#N)CCC2"
value_observed = 226


IN: Look up intrinsic clearance, human liver microsomes for this compound: Cc1ccc(C)c2c(O)cc(CN3CC(c4ccccn4)C3)nc12
OUT: 36.5
